Hello, the source for this data is paper PMC5528877, in case you need it.

Assay: surface biotinylation, pull-down, western, COS-7
Conditions: glycan lost; control: WT Vstm5
MEASURED ATTRIBUTE: localisation_or_trafficking, fold_change

>>> val("V-set and transmembrane domain-containing protein 5 (Vstm5): N101A (protein) parent chain: MRPLRCGERTQGIPLGLLAFWVTAARCLQSQGVSLYIPQSAINATVQQDILLSVDYICHGVPTIEWKYTPNWGVQRIVEWKPGTPANVSQSHRDRVCTFDNGSIQLFNVSVKDSGYYIVTVTEHPGSSQSGTILLRVSEIRYEDLHFVAVFFALLAAVAVVLISLMWVCNQCAYKFQRKRRYKLKESTTEEIEMKEVEC")
"decreases"
>>> val("V-set and transmembrane domain-containing protein 5 (Vstm5): N43,87,101,108A (protein) parent chain: MRPLRCGERTQGIPLGLLAFWVTAARCLQSQGVSLYIPQSAINATVQQDILLSVDYICHGVPTIEWKYTPNWGVQRIVEWKPGTPANVSQSHRDRVCTFDNGSIQLFNVSVKDSGYYIVTVTEHPGSSQSGTILLRVSEIRYEDLHFVAVFFALLAAVAVVLISLMWVCNQCAYKFQRKRRYKLKESTTEEIEMKEVEC")
"decreases"
>>> val("V-set and transmembrane domain-containing protein 5 (Vstm5): N43A (protein) parent chain: MRPLRCGERTQGIPLGLLAFWVTAARCLQSQGVSLYIPQSAINATVQQDILLSVDYICHGVPTIEWKYTPNWGVQRIVEWKPGTPANVSQSHRDRVCTFDNGSIQLFNVSVKDSGYYIVTVTEHPGSSQSGTILLRVSEIRYEDLHFVAVFFALLAAVAVVLISLMWVCNQCAYKFQRKRRYKLKESTTEEIEMKEVEC")
"decreases"
